This collection of values is drawn from ChEMBL document CHEMBL1201862.

# GI50 annotations
- Test system: HOP-92
- Experimental protocol: NCI tumour cell line growth inhibition, 48 h
Calls of active or inactive are those of the source. No stated cut-off is given here; in the data, active = GI50 up to about 1.1 µM and inactive = higher.

[[record]]
compound = "OC1C2CCCCN2C[C@@H](O)[C@H]1O (some centres undefined)"
reading = "> 100 µM (inactive)"

[[record]]
compound = "COc1cc2ccc1-c1cc(ccc1O)CC1c3cc4c(cc3CCN1C)Oc1c(OC)cc3c(c1O4)C(C2)N(C)CC3 (centres undefined)"
reading = "13.4 µM (inactive)"

[[record]]
compound = "Cc1ccc(S(=O)(=O)Nc2cccc(C)c2C)cc1"
reading = "29.5 µM (inactive)"

[[record]]
compound = "O=C(O)CN1CCNCCN(CC(=O)O)CC1"
reading = "8.38 µM (inactive)"

[[record]]
compound = "CCCN(CCCCC(NC(C)=O)C(=O)NCc1ccccc1)C(=O)NC (centres undefined)"
reading = "> 100 µM (inactive)"


GI50 reported for this compound Cc1cc(S(=O)(=O)Nc2nc(Nc3ccc4ccccc4c3)n[nH]2)c(S)cc1Cl : 52.5 µM (inactive)

For record COc1ccccc1N1C(=O)/C(=C\c2cc(OC)c(OC)c(OC)c2)S(=O)(=O)C1c1ccccc1 (centres undefined) the listed GI50 is 33.3 µM (inactive)

Reported GI50 for Cc1cccc(/N=N/c2ccc(O)c(CN(C)C)c2)c1 was 6.17 µM (inactive)

So, Oc1c(Cl)c2nccnc2c2ccccc12 ? Its GI50 was > 100 µM (inactive)
